Every entry's value here was drawn from the supplement of paper PMC12645437.

Molecular target: T1, CRBN, Q96SW2;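 also: pooled lentiviral library of zinc finger degron-EGFP fusions in mCherry-positive Jurkat cells, FACS-sorted after compound exposure, with degron abundance counted by next-generation sequencing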
T1 chain: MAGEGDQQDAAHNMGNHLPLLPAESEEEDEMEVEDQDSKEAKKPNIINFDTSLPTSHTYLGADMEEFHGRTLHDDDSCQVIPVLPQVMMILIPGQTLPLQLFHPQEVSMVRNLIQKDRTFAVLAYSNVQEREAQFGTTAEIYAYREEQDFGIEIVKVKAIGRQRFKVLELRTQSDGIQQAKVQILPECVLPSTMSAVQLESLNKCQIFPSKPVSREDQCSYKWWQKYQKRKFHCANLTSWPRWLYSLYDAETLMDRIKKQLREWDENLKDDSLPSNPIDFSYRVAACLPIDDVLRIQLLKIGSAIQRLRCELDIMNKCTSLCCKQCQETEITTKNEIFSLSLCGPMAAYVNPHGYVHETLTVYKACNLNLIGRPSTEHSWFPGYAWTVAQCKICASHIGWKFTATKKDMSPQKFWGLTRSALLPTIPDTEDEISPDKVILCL
Experiment: log2 fold change of degron read counts, EGFP-low vs EGFP+ sorted cells (limma voom), compound-induced degradation; higher = more compound-induced degradation of the degron-EGFP fusion; degrons are variants of IKZF1/3 zinc finger 2; compound dose not given here
Details: Jurkat; 18 h; compound: compound 22 (5-morpholino-thalidomide)
Over roughly 8,300 sequences, “log2 fold change of degron read counts, EGFP-low vs EGFP+ sorted cells (limma voom), compound-induced degradation” has its median near -1.1; the highest 2% begin near 3.2. The entries come from a sample that favours the highest values as a whole.
Given measured log2 fold change of degron read counts, output Criterion met if it is greater than or equal to 2 and Criterion not met if not.

- FTCPVCGAPFTQKGNLLRHIKL [46F_47T_49P_50V_52G_53A_54P_55F_67L_, Q9UKT9]: Criterion met
- FWCPVCGAPFTQKGNLLRHIKL [46F_47W_49P_50V_52G_53A_54P_55F_67L_, Q9UKT9]: Criterion met
- FVCPVCGAPFTQKGNLLRHIKL [46F_47V_49P_50V_52G_53A_54P_55F_67L_, Q9UKT9]: Criterion met
- FRCNQCGAVFTQKGNLLRHIKL [46F_47R_49N_50Q_52G_53A_54V_55F_67L_, Q9UKT9]: Criterion not met
- FYCPVCGAPFTQKGNLLRHIKL [46F_47Y_49P_50V_52G_53A_54P_55F_67L_, Q9UKT9]: Criterion met
- FHCPVCGAPFTQKGNLLRHIKL [46F_47H_49P_50V_52G_53A_54P_55F_67L_, Q9UKT9]: Criterion met
- FDCEVCGATFTQKGNLLRHIKL [46F_47D_49E_50V_52G_53A_54T_55F_67L_, Q9UKT9]: Criterion not met
- FNCPVCGAPFTQKGNLLRHIKL [46F_47N_49P_50V_52G_53A_54P_55F_67L_, Q9UKT9]: Criterion met
- FHCNQCGARFTQKGNLLRHIKL [46F_47H_49N_50Q_52G_53A_54R_55F_67L_, Q9UKT9]: Criterion not met
- FNCNVCGAPFTQKGNLLRHIKL [46F_47N_49N_50V_52G_53A_54P_55F_67L_, Q9UKT9]: Criterion not met
- FYCDVCGAPFTQKGNLLRHIKL [46F_47Y_49D_50V_52G_53A_54P_55F_67L_, Q9UKT9]: Criterion met
- LRCNQCGFACTQKGNLLRHIKL [46L_47R_49N_50Q_52G_53F_54A_55C_67L_, Q9UKT9]: Criterion not met
- FECNQCGAHFTQKGNLLRHIKL [46F_47E_49N_50Q_52G_53A_54H_55F_67L_, Q9UKT9]: Criterion not met
- FKCEVCGATFTQKGNLLRHIKL [46F_47K_49E_50V_52G_53A_54T_55F_67L_, Q9UKT9]: Criterion not met
- FWCNVCGAPFTQKGNLLRHIKL [46F_47W_49N_50V_52G_53A_54P_55F_67L_, Q9UKT9]: Criterion not met
